Target chain: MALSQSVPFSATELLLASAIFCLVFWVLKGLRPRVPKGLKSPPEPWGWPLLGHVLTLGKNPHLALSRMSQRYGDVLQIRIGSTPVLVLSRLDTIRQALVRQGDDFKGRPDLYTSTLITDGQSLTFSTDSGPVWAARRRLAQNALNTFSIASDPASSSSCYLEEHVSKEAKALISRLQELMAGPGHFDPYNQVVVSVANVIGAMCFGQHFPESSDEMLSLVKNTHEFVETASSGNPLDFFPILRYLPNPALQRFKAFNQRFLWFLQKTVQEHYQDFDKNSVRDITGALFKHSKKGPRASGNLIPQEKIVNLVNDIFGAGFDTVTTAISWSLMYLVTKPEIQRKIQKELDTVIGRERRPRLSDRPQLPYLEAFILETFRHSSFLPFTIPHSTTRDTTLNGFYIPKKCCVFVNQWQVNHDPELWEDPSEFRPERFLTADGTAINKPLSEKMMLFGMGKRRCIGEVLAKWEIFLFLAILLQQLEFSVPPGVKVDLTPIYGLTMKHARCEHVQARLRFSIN
Assignment: determine reported IC50 for the given molecules.
Just the number please, in µM, no unit attached.

Entry Fc1ccc(Cl)c(-c2ccc(N[C@H]3C[C@@H]4CN(CC5CCOCC5)C[C@@H]4C3)nn2)c1 [reference compound] : reported IC50 = ?
1.1

# get_value(readout='IC50', item= Fc1cc(F)c(F)c(-c2ccc(N[C@H]3C[C@@H]4CN(Cc5ccccn5)C[C@@H]4C3)nn2)c1 [Compound 2] )
22.6

---

attribute.measured: IC50 (µM)
Give the value, in units of µM, as a plain number.

Param readout= IC50; system= cytochrome P450 2D6 (Homo sapiens); entry= Fc1ccc(Cl)c(-c2ccc(N[C@H]3C[C@@H]4CN(CC5CCOCC5)C[C@@H]4C3)nn2)c1 [reference compound] ; returns value.
5.3

---

target: P-gp (Homo sapiens); construct: expressed in transfected cells; host or cells: MDR1-MDCK; assay: P-gp efflux in MDR1-MDCK cell monolayers; assay type: in vitro ADME; settings: dog, pH 7.4, MDCK-MDR1, 5 μM
Sequence (P08183 whole entry): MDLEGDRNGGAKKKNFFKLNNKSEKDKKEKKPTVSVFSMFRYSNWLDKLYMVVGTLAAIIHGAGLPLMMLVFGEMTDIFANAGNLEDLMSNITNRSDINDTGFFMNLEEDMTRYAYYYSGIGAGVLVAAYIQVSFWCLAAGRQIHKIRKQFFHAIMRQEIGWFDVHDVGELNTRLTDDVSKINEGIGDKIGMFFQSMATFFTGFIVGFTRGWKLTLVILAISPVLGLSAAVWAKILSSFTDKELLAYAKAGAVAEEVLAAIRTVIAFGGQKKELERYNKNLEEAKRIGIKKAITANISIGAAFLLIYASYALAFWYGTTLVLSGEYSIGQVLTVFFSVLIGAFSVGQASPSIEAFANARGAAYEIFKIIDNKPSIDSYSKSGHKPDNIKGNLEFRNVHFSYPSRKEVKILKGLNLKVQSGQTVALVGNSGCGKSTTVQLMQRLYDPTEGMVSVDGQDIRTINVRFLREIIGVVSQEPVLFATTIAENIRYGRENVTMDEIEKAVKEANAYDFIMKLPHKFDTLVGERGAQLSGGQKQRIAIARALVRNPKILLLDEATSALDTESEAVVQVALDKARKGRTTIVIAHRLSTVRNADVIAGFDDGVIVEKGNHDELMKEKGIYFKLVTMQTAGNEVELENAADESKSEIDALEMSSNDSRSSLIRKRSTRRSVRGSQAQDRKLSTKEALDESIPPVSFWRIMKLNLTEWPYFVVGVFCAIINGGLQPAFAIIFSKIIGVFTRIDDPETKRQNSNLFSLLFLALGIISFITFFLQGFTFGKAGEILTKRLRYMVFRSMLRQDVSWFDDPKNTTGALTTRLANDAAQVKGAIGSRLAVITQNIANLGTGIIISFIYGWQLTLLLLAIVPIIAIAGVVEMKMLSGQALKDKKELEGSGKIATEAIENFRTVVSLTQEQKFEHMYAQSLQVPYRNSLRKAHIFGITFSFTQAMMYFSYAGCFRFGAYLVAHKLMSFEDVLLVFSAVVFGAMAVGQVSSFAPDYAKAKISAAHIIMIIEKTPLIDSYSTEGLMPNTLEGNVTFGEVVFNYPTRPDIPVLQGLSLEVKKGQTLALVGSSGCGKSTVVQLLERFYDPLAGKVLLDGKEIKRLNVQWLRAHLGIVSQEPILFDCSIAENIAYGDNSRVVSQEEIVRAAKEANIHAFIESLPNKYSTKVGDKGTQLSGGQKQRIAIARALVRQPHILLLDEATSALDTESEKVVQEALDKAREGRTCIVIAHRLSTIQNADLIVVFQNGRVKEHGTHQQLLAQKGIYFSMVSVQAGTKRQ
For each record, write down the corresponding efflux ratio at 120 min, 5 μM.
Enter the number alone.

Any idea what efflux ratio at 120 min, 5 μM was measured for Fc1ccc(Cl)c(-c2ccc(N[C@H]3C[C@@H]4CN(CC5CCOCC5)C[C@@H]4C3)nn2)c1 [reference compound] ?
14

What does the record list as efflux ratio at 120 min, 5 μM for Fc1cc(F)c(F)c(-c2ccc(N[C@H]3C[C@@H]4CN(CC5CCOCC5)C[C@@H]4C3)nn2)c1 [Compound 1] ?
8.9

Would you mind telling me what efflux ratio at 120 min, 5 μM value was observed for Fc1cc(F)c(F)c(-c2ccc(N[C@H]3C[C@@H]4CN(Cc5ccccn5)C[C@@H]4C3)nn2)c1 [Compound 2] ?
2.6

Given the entry Fc1ccc(Cl)c(-c2ccc(N[C@H]3C[C@@H]4CN(Cc5ccccn5)C[C@@H]4C3)nn2)c1 [reference compound] , report its measured efflux ratio at 120 min, 5 μM.
12.3

---

Molecular target: Human M4 (Homo sapiens, UniProt P08173)
Construct: Human or rat M4 cDNA, along with the chimeric G protein Gq,5, were transfected into Chinese hamster ovary (CHO-K1) cells; expressed in transfected cells; host or cells: CHO-K1 (M4/Gqi5/CHO)
Sequence (P08173 1-479): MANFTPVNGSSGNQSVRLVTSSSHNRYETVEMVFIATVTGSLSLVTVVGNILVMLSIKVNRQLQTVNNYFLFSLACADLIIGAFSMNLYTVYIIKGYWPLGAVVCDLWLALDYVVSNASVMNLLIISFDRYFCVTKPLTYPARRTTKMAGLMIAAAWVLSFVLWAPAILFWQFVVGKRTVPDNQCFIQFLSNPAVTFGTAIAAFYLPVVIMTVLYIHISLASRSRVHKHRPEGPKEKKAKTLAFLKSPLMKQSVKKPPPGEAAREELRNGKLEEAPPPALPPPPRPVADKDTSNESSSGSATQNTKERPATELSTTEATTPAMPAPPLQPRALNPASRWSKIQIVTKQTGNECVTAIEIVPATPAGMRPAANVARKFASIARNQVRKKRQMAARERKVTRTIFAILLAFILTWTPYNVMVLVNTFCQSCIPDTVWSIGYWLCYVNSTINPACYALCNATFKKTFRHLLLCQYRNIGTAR
Test: mAChR M4 cell-based functional assay (calcium flux, decrease of EC80 acetylcholine response)
Conditions: % ACh maximum at 30 μM
attribute.measured: Human M4 Emin

Field request: Human M4 Emin | item: "OC1(CN2C[C@H]3C[C@H](Nc4ccc(-c5cc(F)cc(F)c5F)nn4)C[C@H]3C2)CCCCCC1"
3%

Reported Human M4 Emin, compound "CC1(C)CC(N2C[C@H]3C[C@H](Nc4ccc(-c5cc(F)cc(F)c5F)nn4)C[C@H]3C2)CC(C)(C)O1" : ____
4%

Request the reported Human M4 Emin associated with [2H]C([2H])(C1CC(C)(O)C1)N1C[C@H]2C[C@H](Nc3ccc(-c4cc(F)cc(F)c4F)nn3)C[C@H]2C1 (stereo partly drawn)
5%

Reported Human M4 Emin for [2H]C([2H])(N1C[C@H]2C[C@H](Nc3ccc(-c4cc(F)cc(F)c4F)nn3)C[C@H]2C1)C1(C)CCCOC1 (stereo partly drawn) : what is it?
2%

Look up Human M4 Emin: "[2H]C([2H])([C@H]1[C@@H]2COC[C@@H]21)N1C[C@H]2C[C@H](Nc3ccc(-c4cc(F)cc(F)c4F)nn3)C[C@H]2C1"
3%

Record request: Human M4 Emin value, item "Fc1cc(F)c(F)c(-c2ccc(N[C@H]3C[C@@H]4CN(Cc5ccnnc5)C[C@@H]4C3)nn2)c1"
16%

---

Target: Human M4 (Homo sapiens, UniProt P08173)
Construct: Human or rat M4 cDNA, along with the chimeric G protein Gq,5, were transfected into Chinese hamster ovary (CHO-K1) cells
Sequence (P08173 1-479): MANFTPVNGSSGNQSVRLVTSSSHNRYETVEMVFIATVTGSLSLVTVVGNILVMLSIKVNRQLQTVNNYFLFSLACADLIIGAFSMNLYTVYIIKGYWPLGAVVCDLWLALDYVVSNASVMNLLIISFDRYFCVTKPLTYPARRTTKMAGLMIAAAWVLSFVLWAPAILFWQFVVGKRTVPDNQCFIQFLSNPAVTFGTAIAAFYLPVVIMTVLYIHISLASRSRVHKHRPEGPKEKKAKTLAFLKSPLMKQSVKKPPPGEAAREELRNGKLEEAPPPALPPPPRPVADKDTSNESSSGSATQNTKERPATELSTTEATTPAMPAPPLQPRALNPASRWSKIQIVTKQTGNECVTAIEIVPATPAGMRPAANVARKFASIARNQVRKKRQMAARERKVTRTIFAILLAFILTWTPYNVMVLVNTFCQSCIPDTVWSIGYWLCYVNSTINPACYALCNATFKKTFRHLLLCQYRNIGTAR
Experiment: mAChR M4 cell-based functional assay (calcium flux, decrease of EC80 acetylcholine response)
Details: CHO-K1 cells with human M4 and Gqi5; EC80 acetylcholine
attribute.measured: IC50 (nM)
Hi! Could you send only the number? It should be in nM, unit omitted.

Which IC50 is reported for this compound? "CCOCCN1C[C@H]2C[C@H](Nc3ccc(-c4cc(F)cc(F)c4F)nn3)C[C@H]2C1"
210

Given "Fc1cc(F)c(F)c(-c2ccc(N[C@H]3C[C@@H]4CN(CC5CCOCC5)C[C@@H]4C3)nn2)c1" , state its recorded IC50.
10.5

Item under review: "[2H]C([2H])(c1c(F)cccc1F)N1C[C@H]2C[C@H](Nc3ccc(-c4cc(F)cc(F)c4F)nn3)C[C@H]2C1" . Reported IC50?
750

Entry under review: "Fc1cc(F)c(F)c(-c2ccc(N[C@H]3C[C@@H]4CN(C[C@H]5COCCO5)C[C@@H]4C3)nn2)c1" . Reported IC50?
48.3

Which IC50 is listed for C[C@]12C[C@H](Nc3ccc(-c4cc(F)cc(F)c4F)nn3)C[C@H]1CN(CC1CCOCC1)C2 (racemic) ?
1.2

Using the record for "Cc1ccc(CN2C[C@H]3C[C@H](Nc4ccc(-c5cc(F)cc(F)c5F)nn4)C[C@H]3C2)nc1" , report its IC50.
24.3

Name the reported IC50 value associated with the compound "CC(C)(C)CCN1C[C@H]2C[C@H](Nc3ccc(-c4cc(F)cc(F)c4F)nn3)C[C@H]2C1"
32

IC50 lookup needed for Fc1cc(F)c(F)c(-c2ccc(N[C@H]3C[C@@H]4CN(CC5CCCCO5)C[C@@H]4C3)nn2)c1 (single isomer, unassigned) [Compound 27] , thanks.
2.14

For the compound "[2H]C([2H])([C@H]1[C@@H]2COC[C@@H]21)N1C[C@H]2C[C@H](Nc3ccc(-c4cc(F)cc(F)c4F)nn3)C[C@H]2C1" , what IC50 is on record?
0.59

Using the record for "Fc1cc(F)c(F)c(-c2ccc(N[C@H]3C[C@@H]4CN(CC5CC6(COC6)C5)C[C@@H]4C3)nn2)c1" , report its IC50.
0.36

Given Fc1cc(F)c(F)c(-c2ccc(N[C@H]3C[C@@H]4CN(C[C@@H]5CC6CCC5O6)C[C@@H]4C3)nn2)c1 (stereo partly drawn) , state its recorded IC50.
0.48

State the recorded IC50 for this entry: "Fc1cc(F)c(F)c(-c2ccc(N[C@H]3C[C@@H]4CN(CCC5COC5)C[C@@H]4C3)nn2)c1"
72

Which IC50 value is on record for "Fc1cc(F)c(F)c(-c2ccc(N[C@H]3C[C@@H]4CN(CC5(F)CCCCC5)C[C@@H]4C3)nn2)c1" ?
41

Look up IC50: OC1(CN2C[C@H]3C[C@H](Nc4ccc(-c5cc(F)cc(F)c5F)nn4)C[C@H]3C2)C2CC3CC(C2)CC1C3 (stereo partly drawn)
78

Consider the compound "Fc1cc(F)c(F)c(-c2ccc(N[C@H]3C[C@@H]4CN(C5CC6(COC6)C5)C[C@@H]4C3)nn2)c1" and give its measured IC50.
798

Quick one: IC50 of "Fc1cc(F)c(F)c(-c2ccc(N[C@H]3C[C@@H]4CN(CC5CCCCC5)C[C@@H]4C3)nn2)c1" ?
57.5

# lookup: IC50 of "CC1(CN2C[C@H]3C[C@H](Nc4ccc(-c5cc(F)cc(F)c5F)nn4)C[C@H]3C2)CCOCC1"
4.63

Need IC50, item [2H]C([2H])(N1C[C@H]2C[C@H](Nc3ccc(-c4cc(F)cc(F)c4F)nn3)C[C@H]2C1)C1(C)CCCCO1 (stereo partly drawn)
6.89

Could you tell me which IC50 is on file for [2H]C(C)(c1ccccn1)N1C[C@H]2C[C@H](Nc3ccc(-c4cc(F)cc(F)c4F)nn3)C[C@H]2C1 (stereo partly drawn) ?
95.2

Which IC50 value is on record for "[2H]C([2H])([C@@H]1CC12CCOCC2)N1C[C@H]2C[C@H](Nc3ccc(-c4cc(F)cc(F)c4F)nn3)C[C@H]2C1" ?
2.1

Any idea what IC50 was measured for Fc1cc(F)c(F)c(-c2ccc(N[C@H]3C[C@@H]4CN(CC5CCCOCC5)C[C@@H]4C3)nn2)c1 (stereo partly drawn) ?
0.82

// returns reported IC50 for input "[2H]C([2H])([C@H]1COCCO1)N1C[C@H]2C[C@H](Nc3ccc(-c4cc(F)cc(F)c4F)nn3)C[C@H]2C1"
0.56

Entry "[2H]C([2H])(N1C[C@H]2C[C@H](Nc3ccc(-c4cc(F)cc(F)c4F)nn3)C[C@H]2C1)C1(C)CCOCC1" : reported IC50 = ?
6.13

Would you kindly share the measured IC50 for "[2H]C([2H])(C1CCOCC1)N1C[C@H]2C[C@H](Nc3ccc(-c4cc(F)cc(F)c4F)nn3)C[C@H]2C1" ?
6.7

Name the reported IC50 value associated with the compound CC(C1CCOCC1)N1C[C@H]2C[C@H](Nc3ccc(-c4cc(F)cc(F)c4F)nn3)C[C@H]2C1 (stereo partly drawn)
5.7

Please look up its IC50: "COc1cccc(CN2C[C@H]3C[C@H](Nc4ccc(-c5cc(F)cc(F)c5F)nn4)C[C@H]3C2)n1"
57.1

Could you tell me which IC50 is on file for "[2H]C([2H])(N1C[C@H]2C[C@H](Nc3ccc(-c4cc(F)cc(F)c4F)nn3)C[C@H]2C1)C1(CC)CCOCC1" ?
39.6
